System: LNCaP
Test: Antiproliferative activity against human LNCAP cells assessed as inhibition of cell proliferation after 3 days by MTS assay
Assay type: functional, cell-based
Conditions: 72 h
pIC50: −log10 of the molar value.
ASSAY_READOUT: pIC50

>  <SUBSTANCE_SMILES>
COc1cc(C(=O)/C=C/c2cn(C)cn2)cc(OC)c1OC

>  <pIC50>
4.32

$$$$

A = COc1cc(C(=O)CCc2cnc[nH]2)cc(OC)c1OC
B = COc1cc(C(=O)/C=C/c2cncn2C)cc(OC)c1OC
input: Sorting ascending by pIC50, which comes first: A or B ? Provide the label of your selected option as the answer.
output: A
(A: 3.43, B: 4.51)
